# STUDY TARGET: human m3 muscarinic acetylcholine receptor expressed in CHO cells (Homo sapiens)
# Construct: purchased Receptor Biology, Inc; host or cells: CHO cells
# EXPERIMENTAL PROTOCOL: Inhibition of [3H]-N-methylscopolamine binding to muscarinic m3 receptor
# CONDITION DESCRIPTION: ratio of Ki m2 to Ki m3
QUANTITY MEASURED: Selectivity m2/m3 (times)

Worked cases, Selectivity m2/m3 given:
O=C(CCNC(=O)[C@H](Cc1c[nH]cn1)NC(=O)CC(c1ccccc1)(c1ccccc1)c1ccccc1)NC[C@H]1CCCN(CC2CCCCC2)C1 | 40
CCCCCN1CCC[C@H](CNC(=O)CCNC(=O)CNC(=O)CC(c2ccccc2)(c2ccccc2)c2ccccc2)C1 | 140
O=C(CCCCCNC(=O)CC(c1ccccc1)(c1ccccc1)c1ccccc1)NC[C@H]1CCCN(CC2CCCCC2)C1 | 71
O=C(CCNC(=O)CNC(=O)CC(c1ccccc1)(c1ccccc1)c1ccccc1)NC[C@H]1CCCN(CC2CCCCC2)C1 | 89

a. CC[N+]1(CC)CCC[C@H](CNC(=O)[C@H]2CCCN2C(=O)[C@@H]2C[C@@H](O)CN2C(=O)CC(c2ccccc2)(c2ccccc2)c2ccccc2)C1.[Cl-]
b. CC[N+]1(CC)CCC[C@H](CNC(=O)[C@H]2CCCN2C(=O)[C@@H]2C[C@@H](O)CN2C(=O)CC(c2ccc(Cl)cc2)(c2ccc(Cl)cc2)c2ccc(Cl)cc2)C1.[Cl-]
Exercise: Hey, which is lower on measured Selectivity m2/m3, a or b ? Pick one; state its label.
Key: b
(b: 85 times, a: 250 times)

---

# STUDY TARGET: human m3 muscarinic acetylcholine receptor expressed in CHO cells (Homo sapiens, UniProt P20309)
# Construct: purchased Receptor Biology, Inc; host or cells: CHO cells
# Sequence (P20309 whole entry): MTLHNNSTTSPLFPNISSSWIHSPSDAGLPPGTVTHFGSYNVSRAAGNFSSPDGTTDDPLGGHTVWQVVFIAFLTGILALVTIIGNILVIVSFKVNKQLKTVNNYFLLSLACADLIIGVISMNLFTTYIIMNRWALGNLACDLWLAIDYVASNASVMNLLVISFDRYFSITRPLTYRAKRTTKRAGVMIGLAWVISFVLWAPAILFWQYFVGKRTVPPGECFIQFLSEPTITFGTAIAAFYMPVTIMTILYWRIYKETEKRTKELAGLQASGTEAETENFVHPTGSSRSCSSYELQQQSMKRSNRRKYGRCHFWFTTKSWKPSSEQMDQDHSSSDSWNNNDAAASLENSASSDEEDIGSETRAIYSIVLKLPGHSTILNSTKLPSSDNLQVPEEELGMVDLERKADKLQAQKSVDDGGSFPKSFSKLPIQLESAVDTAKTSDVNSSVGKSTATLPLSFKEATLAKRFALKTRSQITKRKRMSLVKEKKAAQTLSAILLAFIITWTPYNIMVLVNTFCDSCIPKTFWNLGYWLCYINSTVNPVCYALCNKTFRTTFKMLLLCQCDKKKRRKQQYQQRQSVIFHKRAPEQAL
# EXPERIMENTAL PROTOCOL: Inhibition of [3H]-N-methylscopolamine binding to muscarinic m3 receptor
# CONDITION DESCRIPTION: ratio of Ki m1 to Ki m3
# Protocol: These tests were performed according to a modification of the method of Hargreaves, et al. (Br. J. Pharmacol. 107: 494-501, 1992). […] After adding a scintillator (Microscinti 0; Packard), the radioactivity of [^3H]-N-methylscopolamine binding to the filter was counted with a microplate scintillation counter (TopCount™; Packard). Non-specific receptor binding of [^3H]-N-methylscopolamine was measured by adding 1 μM N-methylscopolamine.
QUANTITY MEASURED: Selectivity m1/m3 (times)

a. O=C(CCCCCNC(=O)CC(c1ccccc1)(c1ccccc1)c1ccccc1)NC[C@H]1CCCN(CC2CCCCC2)C1 [Example 28]
b. CC[C@H](C)C[N+]1(CC)CCC[C@@H](CNC(=O)CCCCCNC(=O)CC(c2ccccc2)(c2ccccc2)c2ccccc2)C1.[Cl-] (stereo partly drawn) [Example 150]
Exercise: Hey, which is lower on measured Selectivity m1/m3, a or b ? Pick one; state its label.
Key: b

---

# STUDY TARGET: human m3 muscarinic acetylcholine receptor expressed in CHO cells (Homo sapiens)
# Construct: purchased Receptor Biology, Inc; host or cells: CHO cells
# EXPERIMENTAL PROTOCOL: Inhibition of [3H]-N-methylscopolamine binding to muscarinic m3 receptor
# CONDITION DESCRIPTION: ratio of Ki m4 to Ki m3
QUANTITY MEASURED: Selectivity m4/m3 (times)

O=C(CCNC(=O)CNC(=O)CC(c1ccccc1)(c1ccccc1)c1ccccc1)NC[C@H]1CCCN(CC2CCCCC2)C1 | 47

I. CCCCCCC[N+]1(C)CCC[C@H](CNC(=O)CCNC(=O)CNC(=O)CC(c2ccccc2)(c2ccccc2)c2ccccc2)C1.[Br-] (stereo partly drawn)
II. CC[N+]1(CC)CCC[C@H](CNC(=O)[C@H]2CCCN2C(=O)[C@@H]2C[C@@H](O)CN2C(=O)CC(c2ccccc2)(c2ccccc2)c2ccccc2)C1.[Cl-]
Exercise: Hey, which is lower on measured Selectivity m4/m3, I or II ? Pick one; state its label.
Key: I

---

# STUDY TARGET: human m2 muscarinic acetylcholine receptor expressed in CHO cells (Homo sapiens, UniProt P08172)
# Sequence (P08172 1-466): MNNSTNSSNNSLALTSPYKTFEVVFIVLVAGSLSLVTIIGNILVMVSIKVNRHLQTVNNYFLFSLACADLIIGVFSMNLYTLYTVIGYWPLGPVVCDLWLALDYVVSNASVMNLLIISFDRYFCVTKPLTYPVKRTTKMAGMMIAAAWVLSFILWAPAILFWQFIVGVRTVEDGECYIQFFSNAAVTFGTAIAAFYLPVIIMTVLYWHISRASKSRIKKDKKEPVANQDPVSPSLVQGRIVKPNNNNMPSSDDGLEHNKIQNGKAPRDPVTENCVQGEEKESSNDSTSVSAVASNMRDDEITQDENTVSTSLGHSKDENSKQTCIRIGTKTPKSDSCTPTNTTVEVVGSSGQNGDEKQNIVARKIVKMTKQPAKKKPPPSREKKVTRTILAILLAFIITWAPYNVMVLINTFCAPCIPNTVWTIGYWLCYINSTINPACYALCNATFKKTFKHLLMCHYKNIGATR
QUANTITY MEASURED: Ki (nM)

1. CC[N+]1(CC)CCC[C@H](CNC(=O)[C@H]2CCCN2C(=O)[C@@H]2C[C@@H](O)CN2C(=O)CC(c2ccccc2)(c2ccccc2)c2ccccc2)C1.[Cl-] [Example 133]
2. CC[N+]1(CC)CCC[C@H](CNC(=O)[C@H]2CCCN2C(=O)[C@@H]2C[C@@H](O)CN2C(=O)CC(c2ccc(Cl)cc2)(c2ccc(Cl)cc2)c2ccc(Cl)cc2)C1.[Cl-] [Example 144]
Exercise: Select one: 1 or 2 . Criterion: greater recorded Ki. Pick one; state its label.
Key: 1
(1: 810 nM, 2: 110 nM)

P. O=C(NC[C@H]1CCC[N+]2(CCCC2)C1)[C@H]1CCCN1C(=O)[C@@H]1C[C@@H](O)CN1C(=O)CC(c1ccccc1)(c1ccccc1)c1ccccc1.[Cl-] [Example 151]
Q. O=C(CCNC(=O)[C@H](Cc1c[nH]cn1)NC(=O)CC(c1ccccc1)(c1ccccc1)c1ccccc1)NC[C@H]1CCCN(CC2CCCCC2)C1 [Example 19]
Exercise: Select one: P or Q . Criterion: greater recorded Ki. Pick one; state its label.
Key: P
(P: 460 nM, Q: 30 nM)

---

# STUDY TARGET: human m1 muscarinic acetylcholine receptor expressed in CHO cells (Homo sapiens)
# Sequence (P11229 1-460): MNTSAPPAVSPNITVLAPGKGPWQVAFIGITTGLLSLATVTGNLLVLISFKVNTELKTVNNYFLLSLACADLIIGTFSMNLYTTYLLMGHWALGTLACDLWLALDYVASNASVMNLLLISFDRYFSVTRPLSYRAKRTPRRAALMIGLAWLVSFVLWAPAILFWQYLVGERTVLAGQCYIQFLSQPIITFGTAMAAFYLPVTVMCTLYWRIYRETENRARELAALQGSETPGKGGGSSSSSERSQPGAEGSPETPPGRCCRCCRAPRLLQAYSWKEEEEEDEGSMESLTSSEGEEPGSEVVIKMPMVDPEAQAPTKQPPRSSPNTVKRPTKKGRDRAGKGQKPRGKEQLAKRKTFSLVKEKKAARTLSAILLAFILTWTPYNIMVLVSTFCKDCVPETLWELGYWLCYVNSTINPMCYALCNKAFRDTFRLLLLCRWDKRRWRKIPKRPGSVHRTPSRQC
QUANTITY MEASURED: Ki (nM)

CC[N+]1(CC)CCC[C@H](CNC(=O)[C@H]2CCCN2C(=O)[C@@H]2C[C@@H](O)CN2C(=O)CC(c2ccc(Cl)cc2)(c2ccc(Cl)cc2)c2ccc(Cl)cc2)C1.[Cl-] [Example 144] | 110
O=C(CCNC(=O)CNC(=O)CC(c1ccccc1)(c1ccccc1)c1ccccc1)NC[C@H]1CCCN(CC2CCCCC2)C1 [Example 12] | 140

1. CC[C@H](C)C[N+]1(CC)CCC[C@@H](CNC(=O)CCCCCNC(=O)CC(c2ccccc2)(c2ccccc2)c2ccccc2)C1.[Cl-] (stereo partly drawn) [Example 150]
2. CCCCCN1CCC[C@H](CNC(=O)CCNC(=O)CNC(=O)CC(c2ccccc2)(c2ccccc2)c2ccccc2)C1 [Example 6]
3. O=C(NC[C@H]1CCC[N+]2(CCCC2)C1)[C@H]1CCCN1C(=O)[C@@H]1C[C@@H](O)CN1C(=O)CC(c1ccccc1)(c1ccccc1)c1ccccc1.[Cl-] [Example 151]
Exercise: Rank descending by Ki. Use the labels to give the ranking in the order requested.
Key: 2, 3, 1
(2: 860 nM, 3: 450 nM, 1: 150 nM)

---

# STUDY TARGET: human m2 muscarinic acetylcholine receptor expressed in CHO cells (Homo sapiens)
# Sequence (P08172 1-466): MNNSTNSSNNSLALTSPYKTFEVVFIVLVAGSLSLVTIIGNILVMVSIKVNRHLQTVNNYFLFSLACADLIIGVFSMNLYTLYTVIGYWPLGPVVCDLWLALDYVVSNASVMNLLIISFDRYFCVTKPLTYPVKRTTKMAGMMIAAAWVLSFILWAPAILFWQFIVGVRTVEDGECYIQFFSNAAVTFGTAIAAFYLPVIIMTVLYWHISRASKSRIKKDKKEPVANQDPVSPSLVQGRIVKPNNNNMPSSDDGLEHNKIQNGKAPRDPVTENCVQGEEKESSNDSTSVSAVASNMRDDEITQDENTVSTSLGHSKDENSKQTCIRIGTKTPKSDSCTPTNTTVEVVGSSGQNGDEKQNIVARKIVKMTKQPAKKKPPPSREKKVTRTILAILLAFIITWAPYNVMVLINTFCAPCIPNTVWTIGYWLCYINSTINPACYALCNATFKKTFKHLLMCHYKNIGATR
QUANTITY MEASURED: Ki (nM)

Worked cases, Ki given:
CCCCCN1CCC[C@H](CNC(=O)CCNC(=O)CNC(=O)CC(c2ccccc2)(c2ccccc2)c2ccccc2)C1 | 250
CCCCCCC[N+]1(C)CCC[C@H](CNC(=O)CCNC(=O)CNC(=O)CC(c2ccccc2)(c2ccccc2)c2ccccc2)C1.[Br-] (stereo partly shown) | 1000

a. O=C(CCCCCNC(=O)CC(c1ccccc1)(c1ccccc1)c1ccccc1)NC[C@H]1CCCN(CC2CCCCC2)C1
b. O=C(CCNC(=O)CNC(=O)CC(c1ccccc1)(c1ccccc1)c1ccccc1)NC[C@H]1CCCN(CC2CCCCC2)C1
Exercise: Select one: a or b . Criterion: greater recorded Ki. Pick one; state its label.
Key: a
(a: 85 nM, b: 34 nM)
